- assayed-target: T1, human platelet glycoprotein I(b)α (GPIbα) on human platelets (human, UniProt P07359 17-652)
- T1 construct: whole, on cells; also called human GPIbα
- T1 sequence (P07359 17-652): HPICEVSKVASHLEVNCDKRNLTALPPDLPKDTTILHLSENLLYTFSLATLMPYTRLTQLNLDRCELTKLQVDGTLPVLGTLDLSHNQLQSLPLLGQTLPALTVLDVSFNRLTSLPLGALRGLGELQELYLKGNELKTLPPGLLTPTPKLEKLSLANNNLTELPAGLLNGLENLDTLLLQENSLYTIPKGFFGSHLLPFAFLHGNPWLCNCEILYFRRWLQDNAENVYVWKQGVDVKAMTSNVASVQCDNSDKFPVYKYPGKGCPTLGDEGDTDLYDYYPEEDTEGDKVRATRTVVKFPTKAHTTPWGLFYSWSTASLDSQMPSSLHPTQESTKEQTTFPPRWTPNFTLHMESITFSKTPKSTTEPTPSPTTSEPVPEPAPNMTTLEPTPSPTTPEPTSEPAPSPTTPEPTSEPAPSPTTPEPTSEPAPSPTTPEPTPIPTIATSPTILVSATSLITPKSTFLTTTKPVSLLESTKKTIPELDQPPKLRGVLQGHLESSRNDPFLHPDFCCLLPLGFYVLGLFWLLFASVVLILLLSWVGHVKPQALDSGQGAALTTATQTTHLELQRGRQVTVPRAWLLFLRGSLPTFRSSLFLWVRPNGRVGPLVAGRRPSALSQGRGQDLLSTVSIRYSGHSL
- method: flow cytometry on washed platelets, 2.5-5 µg/mL, FITC anti-human-Fab detection
measured-property: binding result

Specify binding result for humanized Fab H006 (Fab, V domains shown, Fab with human IgG1 CH1 and human kappa constant region; also called VH4 + VL1) VH: QVQLVESGGGVVQPGRSLRLSCAASGFTFSSFAMSWVRQAPGKGLEWVASITSAGTPYYPDSVLGRFTISRDNSKNTLYLQMNSLRAEDTAVYYCARSRGYEDYFDYWGQGTLVTVSS VL: DIVMTQSPDSLAVSLGERATINCKSSQSLLNSRNQKNYLAWYQQKPGQPPKLLIYFTSTRESGVPDRFSGSGSGTDFTLTISSLQAEDVAVYYCQQHYSSPWTFGGGTKLEIKR and stop.
binds

Specify binding result for humanized Fab H008 (Fab, V domains shown, Fab with human IgG1 CH1 and human kappa constant region; also called VH4 + VL3) VH: QVQLVESGGGVVQPGRSLRLSCAASGFTFSSFAMSWVRQAPGKGLEWVASITSAGTPYYPDSVLGRFTISRDNSKNTLYLQMNSLRAEDTAVYYCARSRGYEDYFDYWGQGTLVTVSS VL: DIVMTQSPLSLPVTPGEPASISCKSSQSLLNSRNQKNYLAWYLQKPGQSPQLLIYFTSTRESGVPDRFSGSGSGTDFTLKISRVEAEDVGVYYCQQHYSSPWTFGQGTKVEIKR and stop.
binds

Specify binding result for humanized Fab H005 (Fab, V domains shown, Fab with human IgG1 CH1 and human kappa constant region; also called VH3 + VL3) VH: EVQLVESGGGLVQPGGSLRLSCAASGFTFSSFAMSWVRQAPGKGLEWVSSITSAGTPYYPDSVLGRFTISRDNSKNTLYLQMNSLRAEDTAVYYCAKSRGYEDYFDYWGQGTLVTVSS VL: DIVMTQSPLSLPVTPGEPASISCKSSQSLLNSRNQKNYLAWYLQKPGQSPQLLIYFTSTRESGVPDRFSGSGSGTDFTLKISRVEAEDVGVYYCQQHYSSPWTFGQGTKVEIKR and stop.
binds
